The reported numbers originate from ChEMBL document CHEMBL1961873.

target: RAC-alpha serine/threonine-protein kinase (Homo sapiens) (UniProt P31749); conditions: at 0.1 µM;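 note: reported values are mean inhibition figures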
Sequence (P31749 whole entry): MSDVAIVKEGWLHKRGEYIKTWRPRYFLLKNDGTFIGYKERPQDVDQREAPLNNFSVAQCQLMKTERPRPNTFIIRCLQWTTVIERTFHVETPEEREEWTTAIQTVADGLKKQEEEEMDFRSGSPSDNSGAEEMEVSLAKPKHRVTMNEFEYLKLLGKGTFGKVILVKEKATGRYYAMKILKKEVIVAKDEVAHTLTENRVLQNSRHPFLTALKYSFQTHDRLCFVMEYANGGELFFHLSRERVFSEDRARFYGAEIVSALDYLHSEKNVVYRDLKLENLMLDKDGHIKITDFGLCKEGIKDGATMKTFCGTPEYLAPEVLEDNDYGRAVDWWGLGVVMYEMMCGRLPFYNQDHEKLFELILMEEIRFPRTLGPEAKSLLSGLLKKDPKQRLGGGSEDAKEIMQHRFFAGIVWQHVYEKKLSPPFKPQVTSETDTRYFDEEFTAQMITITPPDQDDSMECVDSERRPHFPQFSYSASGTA
Examples of compounds with documented inhibition follow.
Readout Kind: inhibition (%)

# Test Smiles, Target Of Assay, Readout Kind, Assay Result
measured = [
    ("COc1cccc(/C=N/Nc2ncnc3c2cnn3-c2cccc(OC)c2)c1", "RAC-alpha serine/threonine-protein kinase (Homo sapiens) (UniProt P31749)", "inhibition", 1.02),
    ("COc1cc(Nc2ncc(-c3ccccc3)o2)cc(OC)c1OC", "RAC-alpha serine/threonine-protein kinase (Homo sapiens) (UniProt P31749)", "inhibition", -1.72),
    ("Fc1ccc(-c2ncn(CCCN3CCOCC3)c2-c2ccncc2)cc1", "RAC-alpha serine/threonine-protein kinase (Homo sapiens) (UniProt P31749)", "inhibition", 0.28),
    ("Clc1ccc(CNc2nccc(-c3cnn4ncccc34)n2)cc1", "RAC-alpha serine/threonine-protein kinase (Homo sapiens) (UniProt P31749)", "inhibition", 0.58),
    ("Fc1ccc(-c2nc3n(c2-c2ccncc2)CCS3)cc1", "RAC-alpha serine/threonine-protein kinase (Homo sapiens) (UniProt P31749)", "inhibition", -2.42),
    ("O=C(Nc1n[nH]c2nc(-c3ccc(O)cc3)c(Br)cc12)C1CC1", "RAC-alpha serine/threonine-protein kinase (Homo sapiens) (UniProt P31749)", "inhibition", 0.84),
    ("COc1ccc2ncn(-c3cc(O[C@H](C)c4ccccc4Cl)c(C(N)=O)s3)c2c1", "RAC-alpha serine/threonine-protein kinase (Homo sapiens) (UniProt P31749)", "inhibition", -3.63),
]

###

molecular target: Cyclin-dependent kinase 5 (Homo sapiens); settings: at 0.1 µM;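 note: enzyme tested as the CDK5/p35 complex, values are mean percent inhibition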

# Test Smiles, Unit Abbreviation, inhibition
rows = [
    ("COc1ccc(C2=C(N3CCc4ccccc43)C(=O)NC2=O)cc1", "%", 1.51),
    ("CCc1nccc2c1nc(-c1nonc1N)n2CC", "%", 1.21),
    ("O=C(Nc1n[nH]c2cc(-c3ccccc3)ccc12)C1CC1", "%", 1.28),
    ("O=C1NC(=O)C(c2cccc(Cl)c2)=C1Nc1ccc(Cl)c(C(=O)O)c1", "%", -0.04),
    ("O=C1Nc2ccccc2/C1=C/Nc1ccc(-n2cncn2)cc1", "%", 3.62),
    ("CS(=O)(=O)CCNCc1cc(-c2cc3c(Nc4ccc(OCc5cccc(F)c5)c(Cl)c4)ncnc3s2)cs1", "%", 0.44),
    ("O=C1Nc2ccc(I)cc2C1=Cc1cc(Br)c(O)c(Br)c1", "%", 0.5),
    ("COc1cc(N2CCN(C(C)C)CC2)ccc1Nc1nc(Nc2ccc(F)cc2C(=O)NC[C@@H](O)CO)c2cc[nH]c2n1", "%", -3.1),
    ("COc1ccc(-c2ccc3c(NC(=O)C4CC4)n[nH]c3n2)cc1", "%", 0.42),
    ("NS(=O)(=O)c1ccc(N/N=C2\\C(=O)Nc3ccc(-c4cnco4)cc32)cc1", "%", 50.2),
    ("CCc1cccc(CC)c1/C=C/c1cncc(C(=O)NC)c1", "%", 0.43),
    ("c1ccc(Oc2ccc(Nc3ncc(-c4ccccc4)o3)cc2)cc1", "%", 0.52),
    ("COc1cc(Nc2ncc(-c3ccccc3)o2)cc(OC)c1OC", "%", 0.52),
    ("COc1ccc2cc(-c3c(-c4ccncc4)nc(-c4ccc(S(C)(=O)=O)cc4C)n3C)ccc2c1", "%", 0.42),
    ("O=C(Nc1ccc(Oc2ccc3[nH]c(NC(=O)c4ccccc4)nc3c2)cc1)Nc1cc(C(F)(F)F)ccc1F", "%", 0.47),
    ("COc1cc(Nc2ncc3c(C)nc(-c4cccc(C(F)(F)F)c4)n3n2)cc(OC)c1OC", "%", 1.13),
    ("Fc1ccc(-c2ncn(C3CCNCC3)c2-c2ccnc(Oc3ccc4c(c3)OCO4)n2)cc1", "%", 0.16),
    ("NCc1ccc(-n2c(-c3nonc3N)nc3cnccc32)cc1", "%", 4.76),
    ("COC(=O)Nc1nc2ccc(Sc3ccc(NC(=O)Nc4cc(C(F)(F)F)ccc4F)cc3)cc2[nH]1", "%", 0.21),
    ("Fc1ccc(-c2ncn(C3CCNCC3)c2-c2ccnc(Oc3ccc(Oc4ccccc4)cc3)n2)cc1", "%", 0.97),
    ("Cc1ccc(C(=O)NC2CCC2)cc1-c1ccc(C(=O)NCC2CC2)cc1", "%", 0.96),
]

###

molecular target: RAC-gamma serine/threonine-protein kinase (Homo sapiens); details: at 0.1 µM
Description: GSK_PKIS: AKT3 mean inhibition at 0.1 uM [Nanosyn]
Recorded inhibition for the following compounds

# Test Smiles, Target Of Assay, inhibition [%]
rows = [
    ("C[C@@H](Oc1cc(-n2cnc3ccc(OCC4CCN(C)CC4)cc32)sc1C(N)=O)c1ccccc1Cl", "RAC-gamma serine/threonine-protein kinase (Homo sapiens)", 0.98),
    ("Fc1ccc(-c2ncn(CCCN3CCOCC3)c2-c2ccncc2)cc1", "RAC-gamma serine/threonine-protein kinase (Homo sapiens)", -0.68),
    ("Fc1ccc(-c2ncn(C3CCNCC3)c2-c2ccnc(Oc3ccc(F)c(F)c3)n2)cc1", "RAC-gamma serine/threonine-protein kinase (Homo sapiens)", -2.6),
    ("Fc1ccc(-c2nc3n(c2-c2ccncc2)CCS3)cc1", "RAC-gamma serine/threonine-protein kinase (Homo sapiens)", -1.74),
    ("CCS(=O)(=O)c1ccc(OC)c(Nc2ncc(-c3ccccc3Cl)o2)c1", "RAC-gamma serine/threonine-protein kinase (Homo sapiens)", 0.76),
    ("O=C1Nc2ccccc2/C1=C/Nc1ccc(-n2cncn2)cc1", "RAC-gamma serine/threonine-protein kinase (Homo sapiens)", 0.39),
]

###

Entries and their measured inhibition follow.
target: Glycogen synthase kinase-3 alpha (Homo sapiens) (UniProt P49840); conditions: at 1 µM;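 note: each figure is a mean percent inhibition of GSK3A activity, from a screen of the GSK published kinase inhibitor set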
Sequence (P49840 2-483 limits assumed): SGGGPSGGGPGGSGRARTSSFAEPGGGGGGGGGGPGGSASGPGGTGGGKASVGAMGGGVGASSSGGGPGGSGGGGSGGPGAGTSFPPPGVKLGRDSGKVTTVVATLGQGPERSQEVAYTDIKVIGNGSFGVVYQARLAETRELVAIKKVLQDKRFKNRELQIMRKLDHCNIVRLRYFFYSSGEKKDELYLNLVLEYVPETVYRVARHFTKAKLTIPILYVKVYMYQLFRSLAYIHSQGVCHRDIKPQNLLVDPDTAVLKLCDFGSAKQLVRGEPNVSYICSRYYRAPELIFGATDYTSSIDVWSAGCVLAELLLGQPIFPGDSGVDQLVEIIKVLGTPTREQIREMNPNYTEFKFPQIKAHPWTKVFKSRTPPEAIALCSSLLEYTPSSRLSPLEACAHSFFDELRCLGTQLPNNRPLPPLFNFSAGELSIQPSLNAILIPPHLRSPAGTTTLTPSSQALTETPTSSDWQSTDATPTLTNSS

# Compound, Target Of Assay, inhibition, %
rows = [
    ("NC(=O)c1ccc(Oc2nccc(-c3c(-c4ccc(F)cc4)ncn3C3CCNCC3)n2)cc1", "Glycogen synthase kinase-3 alpha (Homo sapiens) (UniProt P49840)", 3.39),
    ("Fc1ccc(-c2ncn(C3CCNCC3)c2-c2ccnc(Oc3ccc4c(c3)OCO4)n2)cc1", "Glycogen synthase kinase-3 alpha (Homo sapiens) (UniProt P49840)", 5.18),
    ("CN(C)CCCNc1nccc(-c2c(-c3ccc(F)cc3)nn3cc(C(F)(F)F)ccc23)n1", "Glycogen synthase kinase-3 alpha (Homo sapiens) (UniProt P49840)", 7.76),
    ("COc1ccc(-c2ccc3c(NC(=O)C4CC4)n[nH]c3n2)cc1", "Glycogen synthase kinase-3 alpha (Homo sapiens) (UniProt P49840)", 8.2),
    ("CCC(=O)Nc1ccc(C)c(-c2ccc(C(=O)NCC3CC3)cc2)c1", "Glycogen synthase kinase-3 alpha (Homo sapiens) (UniProt P49840)", 3.42),
    ("COc1cccc(-n2cnc3c(N/N=C/c4ccncc4)ncnc32)c1", "Glycogen synthase kinase-3 alpha (Homo sapiens) (UniProt P49840)", 34.7),
    ("CN(c1ccc(NC(=O)Nc2c(Cl)cccc2Cl)cc1)c1ccnc(Nc2cccc(CS(C)(=O)=O)c2)n1", "Glycogen synthase kinase-3 alpha (Homo sapiens) (UniProt P49840)", 10),
    ("CS(=O)(=O)CCNCc1cc(-c2cc3c(Nc4ccc(OCc5cccc(F)c5)c(Cl)c4)ncnc3s2)cs1", "Glycogen synthase kinase-3 alpha (Homo sapiens) (UniProt P49840)", 2.97),
    ("Nc1nccc(-c2c(-c3ccc(F)cc3)ncn2C2CCC(O)CC2)n1 (centres undefined)", "Glycogen synthase kinase-3 alpha (Homo sapiens) (UniProt P49840)", 5.67),
]

###

biological target: Fibroblast growth factor receptor 3 (Homo sapiens); settings: at 0.1 µM;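 note: each value is a mean percent inhibition of FGFR3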

# Test Smiles, Unit Abbreviation, inhibition
data = [
    ("CCS(=O)(=O)c1ccc(OC)c(Nc2ncc(-c3cccc(-c4ccccc4F)c3)o2)c1", "%", 29.3),
    ("Fc1ccc(-c2ncn(CCCN3CCOCC3)c2-c2ccncc2)cc1", "%", 0.86),
    ("CCC(=O)Nc1ccc(C)c(-c2ccc(C(=O)NCC3CC3)cc2)c1", "%", 2.42),
    ("NS(=O)(=O)c1ccc(N/N=C2\\C(=O)Nc3ccc(-c4cnco4)cc32)cc1", "%", -0.63),
    ("O=C1Nc2ccc(I)cc2C1=Cc1cc(Br)c(O)c(Br)c1", "%", 6.43),
    ("NC(=O)c1cc(-c2ccc(F)cc2)cc(-c2ccncc2)c1N", "%", 4.84),
]

###

target: SRSF protein kinase 3 (Homo sapiens); conditions: at 1 µM;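 note: values are mean inhibition of MSSK1 (alias of SRPK3)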

# Test Smiles, Target Of Assay, inhibition
measured = [
    ("CCS(=O)(=O)c1ccc(OC)c(Nc2ncc(-c3cccc(-c4ccccc4F)c3)o2)c1", "SRSF protein kinase 3 (Homo sapiens)", "1.45%"),
    ("Cc1ccc(C(=O)NC(C)C)cc1-c1ccc(C(=O)NCC2CC2)cc1", "SRSF protein kinase 3 (Homo sapiens)", "-0.59%"),
    ("Fc1ccc(-c2ncn(C3CCNCC3)c2-c2ccnc(Oc3ccc4c(c3)OCO4)n2)cc1", "SRSF protein kinase 3 (Homo sapiens)", "6.43%"),
    ("COc1ccc2cc(-c3c(-c4ccncc4)nc(-c4ccc(S(C)(=O)=O)cc4C)n3C)ccc2c1", "SRSF protein kinase 3 (Homo sapiens)", "-4.7%"),
    ("FC(F)(F)c1cccc(Nc2nccc(-c3cnn4nc(-c5ccccc5)ccc34)n2)c1", "SRSF protein kinase 3 (Homo sapiens)", "1.08%"),
]
